Each entry below carries its reported TGI.
System: SF-539 CNS
Experiment: NCI tumour cell line growth inhibition, 48 h
Write it as a number; the unit µM goes unstated.

{"molecule": "O=C1CCc2ccc(O)c(c2)Oc2ccc(cc2)C(Sc2ccccc2)CCO1 (centres undefined)", "target": "SF-539 CNS", "unit of measure": "µM", "TGI": 31.4}
{"molecule": "COC(=O)/C=C1/OC(c2ccccc2)=C(C)C1=O", "target": "SF-539 CNS", "unit of measure": "µM", "TGI": 32.2}

Proceed to the following item.
Supply measured TGI of COc1ccc2c(c1)CCCN1CCc3ccccc3C21 (centres undefined) in your reply.
75.8

###

Tested on: M14 melanoma
Test: NCI tumour cell line growth inhibition, 48 h; in the data active = GI50 below about 0.43 µM; inactive = the rest
// one of true for active, false for inactive, no free text

{"compound": "C=CCC(N[C@H](CO)c1ccccc1)c1cn(Cc2ccccc2Cl)c(=O)n(Cc2ccccc2Cl)c1=O (some centres undefined)", "category": "false"}
{"compound": "Oc1c(Cl)cc(Cl)c2ccc(Cn3cc(-c4ccc(C(F)(F)F)cc4)nn3)nc12", "category": "false"}

Which outcome was entered for the compound O=[N+]([O-])c1cc([N+](=O)[O-])c(Nn2c3ccccc3c3ccccc32)c([N+](=O)[O-])c1 in this test?
true

Name the outcome recorded for Cc1cc(Nc2nc(N[C@@H](C)c3ncc(F)cn3)ncc2Cl)n[nH]1 in the assay.
false

###

Test system: KM12 colon
Experiment: NCI tumour cell line growth inhibition, 48 h
endpoint: TGI

{"compound": "N#Cc1cnc(Nc2cc(NC[C@H]3CNCCO3)c(C(F)(F)F)cn2)cn1", "TGI": "88.4 µM"}

Fill in TGI for record O=Cc1cc(C(=O)OCc2ccccc2)n(S(=O)(=O)c2ccccc2)c1
37.6 µM

Determine from records and report TGI for Cc1cn(Cc2ccc(C34CC5CC(CC(C5)C3)C4)c(O)c2)c(=O)[nH]c1=O
26.2 µM

Tell me its TGI given Cc1cc(=O)n(-c2cc3cccccc-3n2)[nH]1 as the entry.
91.5 µM

###

System: RXF-631 renal
Experiment: NCI tumour cell line growth inhibition, 48 h
endpoint: TGI

Here's what some known entries look like.
{"compound": "COc1nc(N)c(NC(C)=O)c(=O)n1C", "result value": "> 100 µM"}
{"compound": "O=C1/C(=C/c2ccc(Cl)cc2)CNC/C1=C\\c1ccc(Cl)cc1", "result value": "12.5 µM"}
{"compound": "CNS(=O)(=O)NNS(=O)(=O)c1ccc(OC)cc1", "result value": "> 100 µM"}
{"compound": "COC1(OC)C2(Cl)C(Cl)=C(Cl)C1(Cl)C1C2C2CC1(C(=O)O)c1ccccc12 (stereo unspecified)", "result value": "42.8 µM"}
{"compound": "O=C(Nc1ccc(Cl)cc1Cl)OC(Cn1cncn1)c1ccc(Cl)cc1Cl (stereo unspecified)", "result value": "33.2 µM"}
{"compound": "Cc1cccc(C)c1N1C(=O)C(=O)C(c2nc3ccccc3s2)/C(=N\\N)C1=O (stereo unspecified)", "result value": "> 100 µM"}
{"compound": "Nc1ccccc1C(=O)CCC1C(=O)NC(=S)NC1=O", "result value": "> 100 µM"}
{"compound": "O=C(/C=C\\c1cccc2ccccc12)c1ccc(Cl)cc1Cl", "result value": "74.3 µM"}
{"compound": "NC1=NN(c2ccccc2)C(=O)C1C(=O)C(=O)Nc1ccc(Cl)c(Cl)c1 (stereo unspecified)", "result value": "> 100 µM"}
{"compound": "O=C1C2C3CC(C4C5C=CC(C5)C34)C2C2C3CC(C12)C1C2C=CC(C2)C31 (stereo unspecified)", "result value": "> 100 µM"}

Please look at the following compound next.
Note down TGI recorded for CC1C2C=C(O)C(=O)C(C2=O)C1c1ccccc1 (stereo unspecified)
> 100 µM

###

Tested on: SF-295 CNS
Test: NCI tumour cell line growth inhibition, 48 h
Entries annotated with measured TGI
Field format: number, assumed µM, no unit text.

Use these answered entries as a reference point.
{"molecule": "Cc1cc(-c2cc(O)ccc2Cl)cc2nnc(Nc3ccc(OCCN4CCCC4)cc3)nc12", "unit of measure": "µM", "TGI": 3.32}
{"molecule": "Cn1cc2ccccc2c1-c1nc(F)nc(Oc2ccc3c(c2)CC[C@@H]2C3CC[C@@]3(C)C2C[C@H](O)[C@@H]3O)n1 (stereo not given in full)", "unit of measure": "µM", "TGI": 33.9}
{"molecule": "[B-][P+](CC[P+]1([B-])[C@@H](C)[C@@H](O)[C@H](O)[C@@H]1C)(c1ccccc1)c1ccccc1OC (stereo not given in full)", "unit of measure": "µM", "TGI": 29.4}
{"molecule": "Cn1c2c(c3c(Cl)nncc31)Cc1ccccc1-2", "unit of measure": "µM", "TGI": 66.7}

Dear colleague, please send me the reported TGI for Cc1cc2nc3ccccc3n2c2nc(N)ccc12 when you can.
71.5

Give TGI for the following molecule: Cc1ccc2c(=O)cc(-c3ccc(C)s3)[nH]c2n1
2.79

###

Test system: 786-0 renal
Assay: NCI tumour cell line growth inhibition, 48 h; in the data active = GI50 below about 0.43 µM; inactive = the rest
# output must be one of 1.0 (active), 0.0 (inactive)

Some entries whose results are on file:
{"compound": "Nc1nc(/C=C\\c2ccccc2)nc(N2CCN(c3ccccc3)CC2)n1", "target": "786-0 renal", "category": 0.0}
{"compound": "Cc1cc2c(-c3nc4ccccn4c3N)c(O)c(O)cc2c(O)c1-c1c(C)cc2c(-c3nc4ccccn4c3N)c(O)c(O)cc2c1O", "target": "786-0 renal", "category": 0.0}
{"compound": "COc1cccc(Nc2nc3ccccc3c3occc23)c1", "target": "786-0 renal", "category": 0.0}
{"compound": "CC(=O)[CH-]C(=O)c1ccccc1.CC(=O)[CH-]C(=O)c1ccccc1.O=S(=O)([O-])c1cc([O-])c2c([O-])cc(S(=O)(=O)[O-])cc2c1.[Na+].[Zr+4]", "target": "786-0 renal", "category": 0.0}
{"compound": "c1ccc(CNCCN(CCNCc2ccccn2)Cc2ccc3ccccc3c2)nc1", "target": "786-0 renal", "category": 0.0}
{"compound": "CC(=O)[CH-]C(=O)c1ccccc1.CC(=O)[CH-]C(=O)c1ccccc1.CC(=O)[CH-]C(=O)c1ccccc1.[Nd+3].[OH3+]", "target": "786-0 renal", "category": 0.0}
{"compound": "CCN(CC)CCCC(C)N/C(=C1\\C(=O)NC(=O)\\C1=C(/NC(C)CCCN(CC)CC)c1cccc(OC)c1)c1cccc(OC)c1 (stereo not drawn)", "target": "786-0 renal", "category": 0.0}
{"compound": "CCCCCCCCCC[C@H](O)[C@H](O)CC[C@@H](O)[C@H]1CC[C@@H]([C@H]2CC[C@H](CCCCCCC[C@@H](O)CC3=C[C@H](C)OC3=O)O2)O1", "target": "786-0 renal", "category": 0.0}
{"compound": "O=C(O)C1[O][Sb][O]C(C(=O)O)C1O (stereo not drawn)", "target": "786-0 renal", "category": 0.0}
{"compound": "COc1ccc([C@@]23Oc4cc(OC)cc(OC)c4[C@]2(O)[C@H](O)[C@H](C(N)=O)[C@H]3c2ccccc2)cc1", "target": "786-0 renal", "category": 1.0}

Entry CC(=O)C1=C(O)C=C2Oc3c(C(=O)/C=C/c4cc(Cl)cc(Cl)c4)c(O)c(C)c(O)c3[C@]2(C)C1=O : call = ?
0.0

What did the test return for CC1NC(=O)C2=C1C(=O)NC(=O)C2 (stereo not drawn) ?
0.0

Just curious, what result did Cc1cc(Nc2nc(N[C@@H](C)c3ncc(F)cn3)ncc2Cl)n[nH]1 get here?
0.0

###

Form field: TGI (one value per entry).
System: HS 578T breast
Test: NCI tumour cell line growth inhibition, 48 h
Field: numeric (µM). Do not append units.

Solved entries:
{"compound": "CC1=CC[C@@]2(C)CC[C@](O)(C(C)C)C2C(OC(=O)c2ccccc2)C1 (some centres undefined)", "TGI [µM]": 47.9}
{"compound": "CCOc1ccn(-c2ccc(F)cc2)c(=O)c1C(=O)Nc1ccc(Oc2ccnc(N)c2Cl)c(F)c1", "TGI [µM]": 30.6}
{"compound": "CCNC(=O)Oc1ccc(/C(=C(/C)Cc2ccc(OC)cc2)c2ccc(OCCN(CC)CC)cc2)cc1", "TGI [µM]": 5.16}
{"compound": "COC(=O)c1oc2c(C(=O)/C=C/c3ccc(OC)cc3)c(OCCN(C)C)ccc2c1C", "TGI [µM]": 22.4}

Now take the following compound into account.
Note down TGI recorded for COc1ccc2c(c1)/C(=C\c1c(Cl)[nH]c3ccccc13)C(=O)N2
9.88

###

System: RXF 393 renal
Experiment: NCI tumour cell line growth inhibition, 48 h
Measured log10 TGI, listed per entry for reference.
Use the decimal logarithm of TGI (µM).

{"molecule": "O=C1CCc2ccc(O)c(c2)Oc2ccc(cc2)C(Sc2ccccc2)CCO1 (stereo not drawn)", "log10 TGI": 1.55}

Name the recorded log10 TGI of the item COc1cccc(C2c3cc4c(cc3OC(NNS(=O)(=O)c3ccc(C)cc3)C2C)OCO4)c1OC (stereo not drawn) in your answer.
1.33

Specify measured log10 TGI for CC[C@@H](C)/C=C(C)/C=C/C(=O)c1c(O)c(-c2ccc(O)cc2)cn(O)c1=O .
0.35
